# ASSAY PROCEDURE: Mouse microsomal oxidation assay
# Assay type: in vitro ADME
# STUDY CONDITIONS: 15 μM compound, 0.5 mg/mL microsomal protein, 1 mM NADPH, 37° C., 30 min; +/−10% equivalent to little or no oxidation
MEASURE: Mouse Liver Microsome Oxidation (%)

1. Cc1nc(N)nc2c1cc(-c1ccc(N)nc1)c(=O)n2C1CCOC1 (centres unmarked)	−8.2
2. Cc1nc(N)nc2c1cc(-c1ccc(N)nc1)c(=O)n2C1CCCOC1 (centres unmarked)	6.6
3. COc1ccc(-c2cc3c(C)nc(N)nc3n(C3CCCOC3)c2=O)cn1 (centres unmarked) [reference compound]	45.6

---

# TARGET DESC: UniProt:P42336
# Sequence (P42336 whole entry): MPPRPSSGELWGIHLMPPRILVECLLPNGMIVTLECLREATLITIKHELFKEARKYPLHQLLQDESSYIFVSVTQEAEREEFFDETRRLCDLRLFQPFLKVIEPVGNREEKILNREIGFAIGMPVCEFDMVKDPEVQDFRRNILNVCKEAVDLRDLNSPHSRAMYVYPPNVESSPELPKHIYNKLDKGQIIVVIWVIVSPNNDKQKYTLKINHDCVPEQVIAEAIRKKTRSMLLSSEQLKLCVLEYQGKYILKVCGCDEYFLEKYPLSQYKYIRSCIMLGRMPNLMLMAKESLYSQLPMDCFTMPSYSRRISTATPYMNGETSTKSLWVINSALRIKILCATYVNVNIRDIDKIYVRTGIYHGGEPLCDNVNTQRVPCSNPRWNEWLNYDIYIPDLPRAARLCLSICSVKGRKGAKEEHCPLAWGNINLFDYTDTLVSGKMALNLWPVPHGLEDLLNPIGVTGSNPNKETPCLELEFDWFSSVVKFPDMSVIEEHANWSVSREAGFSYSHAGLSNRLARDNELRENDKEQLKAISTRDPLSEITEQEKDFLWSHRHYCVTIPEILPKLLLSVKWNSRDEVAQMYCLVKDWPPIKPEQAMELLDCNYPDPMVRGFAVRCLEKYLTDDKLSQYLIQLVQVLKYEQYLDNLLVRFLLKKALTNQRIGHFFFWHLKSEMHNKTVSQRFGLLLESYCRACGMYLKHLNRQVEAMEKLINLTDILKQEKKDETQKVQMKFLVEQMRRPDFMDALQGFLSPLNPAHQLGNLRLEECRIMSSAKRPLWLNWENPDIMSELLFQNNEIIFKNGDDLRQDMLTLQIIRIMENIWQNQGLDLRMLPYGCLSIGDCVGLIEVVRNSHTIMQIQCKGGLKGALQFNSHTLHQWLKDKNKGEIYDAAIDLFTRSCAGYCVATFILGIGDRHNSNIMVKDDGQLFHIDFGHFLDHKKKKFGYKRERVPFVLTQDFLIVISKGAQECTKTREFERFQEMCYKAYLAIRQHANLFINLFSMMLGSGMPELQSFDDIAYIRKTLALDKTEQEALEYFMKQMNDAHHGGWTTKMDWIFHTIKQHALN
# Sequence (P27986 whole entry partner): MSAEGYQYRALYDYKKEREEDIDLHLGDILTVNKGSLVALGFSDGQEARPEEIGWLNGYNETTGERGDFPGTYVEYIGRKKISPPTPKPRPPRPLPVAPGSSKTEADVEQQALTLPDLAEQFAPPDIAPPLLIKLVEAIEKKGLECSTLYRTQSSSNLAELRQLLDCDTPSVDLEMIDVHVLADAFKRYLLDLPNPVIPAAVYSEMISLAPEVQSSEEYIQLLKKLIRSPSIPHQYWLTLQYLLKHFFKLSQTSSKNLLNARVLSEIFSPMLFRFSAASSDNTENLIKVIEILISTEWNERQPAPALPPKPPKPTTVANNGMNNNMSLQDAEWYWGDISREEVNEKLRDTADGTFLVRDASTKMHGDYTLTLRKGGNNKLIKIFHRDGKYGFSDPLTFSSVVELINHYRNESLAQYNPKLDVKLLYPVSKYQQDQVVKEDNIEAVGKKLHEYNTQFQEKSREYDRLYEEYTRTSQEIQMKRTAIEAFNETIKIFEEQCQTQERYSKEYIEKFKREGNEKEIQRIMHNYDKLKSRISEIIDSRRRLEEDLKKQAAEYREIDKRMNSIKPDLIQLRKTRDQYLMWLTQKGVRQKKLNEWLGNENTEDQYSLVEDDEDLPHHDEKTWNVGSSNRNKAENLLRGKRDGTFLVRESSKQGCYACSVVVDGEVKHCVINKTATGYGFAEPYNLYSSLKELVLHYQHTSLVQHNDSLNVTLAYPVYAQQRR
# ASSAY PROCEDURE: PI3K luciferase-coupled chemiluminescence assay (PI3Kα)
# STUDY CONDITIONS: first value of cell 'P13K-α, β'; 1 μM ATP, 10 μM PIP2
pIC50: −log10 of the molar value.
MEASURE: pIC50

1) Cc1nc(N)nc2c1cc(-c1ccc(N)nc1)c(=O)n2C1CCOCC1	8.05
2) Cc1nc(N)nc2c1cc(-c1ccc(N)nc1)c(=O)n2[C@H]1CCOC1	7.81
3) Cc1nc(N)nc2c1cc(-c1ccc(N)nc1)c(=O)n2[C@H]1CCCOC1	8.14
4) Cc1nc(N)nc2c1cc(-c1ccc(N(C)C)nc1)c(=O)n2C1CCCOC1 (centres unmarked) [reference compound]	7.87
5) Cc1nc(N)nc2c1cc(-c1ccc(N)nc1)c(=O)n2C1CCCOC1 (centres unmarked)	8.26
6) Cc1nc(N)nc2c1cc(-c1ccc(N(C)C)nc1)c(=O)n2[C@H]1CCCOC1 [reference compound]	8.04
7) COc1ccc(-c2cc3c(C)nc(N)nc3n(C3CCCOC3)c2=O)cn1 (centres unmarked) [reference compound]	8.55

---

Form field: pIC50 (one value per entry).
# Tested on: MCF-7 cells
# ASSAY PROCEDURE: MCF-7 2 day BrdU cell proliferation assay
# Assay type: cell-based, human
# STUDY CONDITIONS: MCF-7, 48 hr
pIC50: −log10 of the molar value.
MEASURE: pIC50

1. Cc1nc(N)nc2c1cc(-c1ccc(N)nc1)c(=O)n2C1CCCOC1 (stereo not drawn)	7.01
2. Cc1nc(N)nc2c1cc(-c1ccc(N)nc1)c(=O)n2C1CCOC1 (stereo not drawn)	6.66
3. Cc1nc(N)nc2c1cc(-c1ccc(N(C)C)nc1)c(=O)n2C1CCCOC1 (stereo not drawn) [reference compound]	6.82

---

# TARGET DESC: mTOR/GbL/Raptor (mTORC1) (Homo sapiens)
# ASSAY PROCEDURE: mTOR/GbL/Raptor (mTORC1) ELISA assay
# STUDY CONDITIONS: mTORC1, 10 μM ATP, 4E-BP1 substrate
pIC50: −log10 of the molar value.
MEASURE: pIC50

1) Cc1nc(N)nc2c1cc(-c1ccc(N)nc1)c(=O)n2C1CCCOC1 (centres unmarked)	8.59
2) Cc1nc(N)nc2c1cc(-c1ccc(N)nc1)c(=O)n2C1CCOCC1	8.49
3) Cc1nc(N)nc2c1cc(-c1ccc(N)nc1)c(=O)n2[C@H]1CCCOC1	8.52
4) Cc1nc(N)nc2c1cc(-c1ccc(N(C)C)nc1)c(=O)n2[C@H]1CCCOC1 [reference compound]	8.24
5) Cc1nc(N)nc2c1cc(-c1ccc(N(C)C)nc1)c(=O)n2C1CCCOC1 (centres unmarked) [reference compound]	8.21
6) Cc1nc(N)nc2c1cc(-c1ccc(N)nc1)c(=O)n2[C@H]1CCOC1	8.26
7) COc1ccc(-c2cc3c(C)nc(N)nc3n(C3CCCOC3)c2=O)cn1 (centres unmarked) [reference compound]	8.17
8) Cc1nc(N)nc2c1cc(-c1ccc(N)nc1)c(=O)n2C1CCOC1 (centres unmarked)	8.60
